subjectOfTest: Beta-secretase 1 (Homo sapiens, UniProt P56817)
Sequence (P56817 whole entry): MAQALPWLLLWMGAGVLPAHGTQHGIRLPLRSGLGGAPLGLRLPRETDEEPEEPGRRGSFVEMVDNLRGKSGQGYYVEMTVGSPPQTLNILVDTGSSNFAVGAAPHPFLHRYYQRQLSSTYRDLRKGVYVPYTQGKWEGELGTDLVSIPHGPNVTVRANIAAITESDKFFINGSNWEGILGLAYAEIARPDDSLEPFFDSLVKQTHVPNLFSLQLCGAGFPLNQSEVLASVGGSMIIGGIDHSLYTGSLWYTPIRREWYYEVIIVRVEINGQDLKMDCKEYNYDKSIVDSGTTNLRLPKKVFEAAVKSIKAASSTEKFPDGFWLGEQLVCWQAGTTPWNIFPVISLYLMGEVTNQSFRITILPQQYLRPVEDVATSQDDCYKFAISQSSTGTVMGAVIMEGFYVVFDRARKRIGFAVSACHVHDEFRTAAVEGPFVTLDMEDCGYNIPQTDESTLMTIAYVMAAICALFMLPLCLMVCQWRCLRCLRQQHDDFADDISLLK
experimentalReadout: IC50 (µM)

Solved entries:
[[record]]
recordsmiles = "Cc1ccc(Nc2cc(-c3ccccc3N(C)C)ncn2)cc1NS(C)(=O)=O"
unitannotation = "µM"
resultnumber = 317

[[record]]
recordsmiles = "CS(=O)(=O)Nc1cc(Nc2cc(-c3ccccc3)ncn2)ccc1F"
unitannotation = "µM"
resultnumber = 110


(P) CS(=O)(=O)Nc1cc(Nc2cc(-c3ccccc3)ncn2)ccc1Cl
(Q) Cc1ccc(Nc2cc(-c3ccccc3C)ncn2)cc1NS(C)(=O)=O
In: Given P and Q , report the one with the higher recorded IC50. State your choice using its label.
Out: Q
